The reported measurements were obtained from paper PMC4417160.

# experimental_target: T1, RBM7 RRM (Homo sapiens (cDNA from HEK293T-Rex), UniProt Q9Y580 6-94)
# T1 sequence: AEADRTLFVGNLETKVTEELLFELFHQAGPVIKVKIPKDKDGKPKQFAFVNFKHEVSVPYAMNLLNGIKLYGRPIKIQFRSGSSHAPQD
# test: fluorescence anisotropy; FA: 50 mM Tris pH 7.0 (also given as pH 8), 200 mM NaCl, 10 mM 2-mercaptoethanol, 20 C; NMR: 20 mM Bis-Tris pH 7.0, 200 mM NaCl, 4 mM 2-mercaptoethanol; pull-down: HSB, 1 h at 30 C
# experimental_setup: protein: recombinant; tags: 6xHis-Smt3 removed with Ulp1; label: 5' fluorescein
Listed next: entries and their corresponding Kd.
Output spec: scalar in µM, unitless text.

Recorded results for 4 binders are shown here.
Q) In one line, give reported Kd of the entry AUUAUUA (ssRNA) [AU7] .
A) 130

Q) In one line, give reported Kd of the entry CUCU (ssRNA) [Y4] .
A) 160

Q) In one line, give reported Kd of the entry UUUUUUU (ssRNA) [U7] .
A) 60

Q) In one line, give reported Kd of the entry CUCUCUC (ssRNA) [Y7] .
A) 70

Now look at this one.
Q) In one line, give reported Kd of the entry CUUCU (ssRNA) [Y5] .
A) 90
